growth inhibition values, listed per item
# protocol: NCI Yeast Anticancer Drug Screen. Data for the rad50 strain (AID 155);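 note: 0% = growth of vehicle-only cultures of the same strain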
# assay.context: S. cerevisiae rad50 strain growth inhibition; at 50.0 µM; hits give high values
Compounds without any hit were thinned out: in the full panel of roughly 79,000, 15% have a hit.
# unit: % | format: bare number

compound | recorded.number
O=C(N/C=C(/c1ccccc1)S(=O)Cc1ccccc1)Nc1ccccc1Cl (configuration not stated) | -8.45
CCOc1ccc(/C=C2\C=Nc3ccccc32)cc1 | -3.75

growth inhibition for O=[N+]([O-])c1ccc(COP(=O)(OCc2ccc([N+](=O)[O-])cc2)OCc2ccc([N+](=O)[O-])cc2)cc1 ?
-8

growth inhibition for O=S(=O)(O)CC(NCc1ccccc1)c1ccccc1 (configuration not stated) ?
-28.9

growth inhibition for C=[N+](CNC(=O)CNC(=O)C(Cc1ccc([N+](=O)[O-])cc1)NC(=O)OC(C)(C)C)C(=O)CNC(=O)C(Cc1ccc([N+](=O)[O-])cc1)NC(=O)OC(C)(C)C (configuration not stated) ?
-23.1

growth inhibition for Nc1nc(N)c2cc(S(=O)(=O)c3ccc(Cl)cc3)ccc2n1 ?
21.9

growth inhibition for COc1ccc(C(c2cc3c(cc2O)OCO3)N2CCN(C(c3ccc(OC)cc3)c3cc4c(cc3O)OCO4)CC2)cc1 (configuration not stated) ?
17.1

growth inhibition for N#C/C=C\c1ccc(C#N)cc1 ?
28.1

growth inhibition for C/C(=N\NC(N)=S)c1ccc(C)cc1C ?
45.4

###

growth inhibition values, listed per item
# protocol: NCI Yeast Anticancer Drug Screen. Data for the rad50 strain (AID 155);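 note: 0% = growth of vehicle-only cultures of the same strain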
# assay.context: S. cerevisiae rad50 strain growth inhibition; at 50.0 µM; hits give high values
About 79,000 compounds went through this panel and 15% of them were active in at least one assay; those are over-represented in the sample as a whole.
# unit: % | format: bare number

See these solved cases before continuing.
molecule | recorded.number
CCOC(=O)Cn1c(=O)[nH]c(=O)c2[nH]cnc21 | 9.85
COc1ccc(-c2oc3cc(OC)c(OC)c(OC)c3c(=O)c2O)cc1O | 62.5
Cn1c(=O)c2[nH]c(CCCc3ccc([N+](=O)[O-])cc3)nc2n(C)c1=O | -2.45
Cc1nnc(CC#N)n1NC(=O)CC#N | 3.95
CC(=O)Nc1ccc(Nc2nc(=O)[nH]c(=O)[nH]2)cc1 | -3.2

growth inhibition for CC(NC(=O)C(OC(=O)C(C)NC(=O)OC(C)(C)C)C(C)C)C(=O)OC(C(=O)O)C(C)C (stereo unspecified) ?
-24.2

growth inhibition for CCC(=O)Nc1cccc2ccccc12 ?
5.1

growth inhibition for COc1ccc(/C=C2\N=C(c3cc(OC)c(OC)c(OC)c3)OC2=O)cc1 ?
20.2

growth inhibition for O=P(O)(O)c1ccccc1Oc1ccccc1 ?
7.8

growth inhibition for CC(=O)Nc1cc(-c2ccccc2)ccc1O ?
56.7

growth inhibition for O=NN(Cc1ccccc1)c1ccc(OCc2ccccc2)c(NC(=O)CCC2OCCO2)c1 ?
6.95

###

# protocol: NCI Yeast Anticancer Drug Screen. Data for the mec2-1 strain (AID 157)
# assay.context: S. cerevisiae mec2-1 strain, at 50.0 µM
Compounds without any hit were thinned out: in the full panel of roughly 79,000, 15% have a hit. Activity calls are given as the source filed them. Rule as the data show it: active = growth inhibition above about 70%; inactive = the rest.
Your answer must be one of the following: TRUE = active, FALSE = inactive

Below, 2 compounds whose answers are already recorded.
compound | discrete.label
OC(NN=C1CCCC1)(C(F)(F)Cl)C(F)(F)Cl | FALSE
COC(=O)C(Cc1ccc2c(c1)OCO2)(NC(=O)c1ccccc1)P(=O)(OC)OC (configuration not stated) | FALSE

Field: outcome | Entry: CN1CN(c2ccccc2)C2(CCN(c3nc4ccccc4s3)CC2)C1=O
FALSE

Field: outcome | Entry: CCOC(=O)CNC(=O)C(Cc1cnc[nH]1)NC(=O)OCc1ccccc1 (configuration not stated)
FALSE

Field: outcome | Entry: NC(CSC(c1ccccc1)(c1ccccc1)c1ccc(C(=O)O)cc1)C(=O)O (configuration not stated)
FALSE

Field: outcome | Entry: COc1ccc2nc3cc(Cl)ccc3c(Sc3ccc(NC(C)=O)cc3)c2c1
FALSE

Field: outcome | Entry: Cc1ccc([N+](=O)[O-])cc1NC(=O)NCCCl
FALSE

Field: outcome | Entry: CCc1c(-c2ccccc2)[nH]c(=S)c(C#N)c1C
FALSE

Field: outcome | Entry: OCCN(CCO)c1cc(/C=C/c2c3ccccc3cc3ccccc23)nc2ccccc12
TRUE

Field: outcome | Entry: Cc1ccc(OCc2cccc(Cl)c2)cc1
FALSE

Field: outcome | Entry: CC(=O)c1c(C)[nH]c(C(=O)O)c1C
FALSE

Field: outcome | Entry: O=C(O)C1CCCCN1O (configuration not stated)
FALSE

Field: outcome | Entry: O/N=C(/Cc1ccccc1)c1ccccc1
FALSE

Field: outcome | Entry: CCCCCNN
FALSE

Field: outcome | Entry: c1ccc2c(c1)ncc1cccn12
FALSE

Field: outcome | Entry: C=C(CC(=O)OCC)C(=O)OCC
FALSE

Field: outcome | Entry: Cc1cn(-c2c(C)c(C)c(-n3c(C)ccc3C)c(C)c2C)cc1C
FALSE

Field: outcome | Entry: CCOC(=O)C1=C(C)C/C(=N/NC(N)=O)CC1
FALSE

Field: outcome | Entry: CCCC1CN2CCc3cc(OC)c(OC)cc3C2CC1=O (configuration not stated)
FALSE

###

# protocol: NCI Yeast Anticancer Drug Screen. Data for the mlh1 rad18 strain (AID 175)
# assay.context: S. cerevisiae mlh1 rad18 strain growth inhibition; at 50.0 µM; hits give high values
The panel holds about 79,000 compounds, 15% with a hit somewhere; the sample as a whole holds those more often.
growth inhibition of -20% or higher: true. Under -20%: false.

molecule | discrete.label
CCCCCCNC(=O)c1ccc(C(=O)NCCCCCC)cc1 | false
O=C1OC(=O)C2=C1CCCC2 | true
O=c1oc(-c2ccc(Cl)cc2Cl)nc2cc(Cl)ccc12 | true
CCCCCCC1OCCC(C)O1 (configuration not stated) | true
CCCCCCCSc1nc2ccc(N=Cc3ccccc3O)cc2s1 | false
Nc1c(-c2ccccc2[N+](=O)[O-])nc2ccccn12 | false

Quick check, growth inhibition >= -20%? C=CCNC(=O)N(CCCC(NC(C)=O)C(=O)NCc1ccccc1)Cc1ccccc1 (configuration not stated)
true

Quick check, growth inhibition >= -20%? OCCSCCCSCCO
true

Quick check, growth inhibition >= -20%? C=C(C)c1ccc(C(=C)C)cc1
false

Quick check, growth inhibition >= -20%? COc1ccc(C)c2c1CCCC2
true

Quick check, growth inhibition >= -20%? c1ccc(C2SCSCS2)cc1
true

Quick check, growth inhibition >= -20%? C[C@@H]1CC[C@]2(C(=O)O)CC[C@]3(C)C(=CC[C@@H]4[C@@]5(C)CC[C@H](O)C(C)(C)[C@@H]5CC[C@]43C)[C@@H]2[C@]1(C)O
false

###

# protocol: NCI Yeast Anticancer Drug Screen. Data for the mec2-1 strain (AID 157)
# assay.context: S. cerevisiae mec2-1 strain, at 50.0 µM, hits give high values
The panel holds about 79,000 compounds, 15% with a hit somewhere; the sample as a whole holds those more often. Active and inactive are the calls of the source. Cut-off read from the data, not from the text of the source: active = growth inhibition above about 70%; inactive = the rest.
readout.label: growth inhibition

See these solved cases before continuing.
compound | readout.label | result
O=C(Nc1cc(C(F)(F)F)ccc1Cl)N(Cc1ccccc1)c1ccccc1 | growth inhibition | -15.9% (inactive)
NC(=O)NC(=O)NCc1ccccc1 | growth inhibition | 0.35% (inactive)

growth inhibition for CCNC(=S)NCCc1c[nH]c2ccccc12 ?
-3.55% (inactive)

growth inhibition for COc1cc(C(=O)O)ccc1OS(=O)(=O)O ?
-62.5% (inactive)

growth inhibition for O=[N+]([O-])c1ccc(S(=O)(=O)N/N=C\c2cc([N+](=O)[O-])ccc2O)cc1 ?
-1.4% (inactive)

growth inhibition for CC(NC(=O)C(OC(=O)C(C)NC(=O)OC(C)(C)C)C(C)C)C(=O)OC(C(=O)O)C(C)C (stereo not drawn) ?
10.3% (inactive)

growth inhibition for CCOC(=O)C1C(c2cc(OC)c(OC)c(OC)c2)c2cc3c(cc2OC1(C)OC)OCO3 (stereo not drawn) ?
5.4% (inactive)

growth inhibition for c1ccc(-c2nc3ccccc3o2)cc1 ?
21.4% (inactive)

growth inhibition for CN(C=O)c1ccc([N+](=O)[O-])cc1 ?
-6.5% (inactive)

growth inhibition for CC/C=C/CC(=O)NCc1ccc(O)c(OC)c1 ?
-1.15% (inactive)

growth inhibition for Cc1ccc(O)c(C2C=CCC2)c1 (stereo not drawn) ?
-7.25% (inactive)

###

growth inhibition values, listed per item
# protocol: NCI Yeast Anticancer Drug Screen. Data for the sgs1 mgt1 strain (AID 161);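 note: 0% = growth of cultures given vehicle only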
# assay.context: S. cerevisiae sgs1 mgt1 strain, at 50.0 µM, hits give high values
The panel holds about 79,000 compounds, 15% with a hit somewhere; the sample as a whole holds those more often.
# unit: % | format: bare number

compound | growth inhibition [%]
CCSC(SCC)C(NC(C)=O)C(OC(C)=O)C(OC(C)=O)C(COC(C)=O)OC(C)=O (stereo not given) | -0.2

growth inhibition for Brc1nccs1 ?
-13.2

growth inhibition for c1cc2c3c(cccc3c1)C1C2C2c3cccc4cccc(c34)C12 (stereo not given) ?
7.35

growth inhibition for CN(C)C(=O)/C=C/C(=O)O (tested in a mixture with another compound) ?
6.9

growth inhibition for c1ccc2c(c1)OP1(=NP3(=NP4(=NP5(=N1)Oc1ccccc1-c1ccccc1O5)Oc1ccccc1-c1ccccc1O4)Oc1ccccc1-c1ccccc1O3)Oc1ccccc1-2 ?
-30.5

growth inhibition for N#Cc1ccc(Cl)cc1C#N ?
-2.2

growth inhibition for CC(C)(N)C(=O)N[C@@H]1C(=O)N2[C@@H]1SC(C)(C)[C@@H]2C(=O)O ?
-19.2

growth inhibition for O=C(Nc1ccc(C(F)(F)F)cc1[N+](=O)[O-])C(=O)C1NC(=S)NC1=O (stereo not given) ?
24.9

growth inhibition for CC(Cc1nc2ccccc2[nH]1)Cc1nc2ccccc2[nH]1 ?
7.1

growth inhibition for O=[N+]([O-])c1cccc(N=Nc2ccccc2)c1 ?
-22.3
